Molecular target: human ether-à-go-go-related gene (hERG) potassium channel (human)
Assay: primary screen, population patch clamp on CHO cells stably expressing hERG; higher = less effect of the substance
Hit rate of the full screen: of about 310,000 compounds, about 14,000 (4.5%) showed an effect of 50% or more. Effects have a minus sign here. This excerpt belongs to a sample that is enriched for strong results.
Please respond with reported hERG current change (%, negative = inhibition) at 10uM for every item in the list.
Numbers only, in %.

INSERT INTO assay_data (compound, experimental_target, unit_annotation, assay_value) VALUES
  ('Cc1ccc(-n2cnc3ncnc(-c4ccccc4)c32)cc1', 'human ether-à-go-go-related gene (hERG) potassium channel (human)', '%', -6.83);

Answer for every listed entry: what is its hERG current change (%, negative = inhibition) at 10uM? The entries follow.
1. CCC(NC(=O)c1ccccc1NC(=O)c1ccccc1)C(=O)OC (stereo not shown)
2. O=C(CSc1nnc2ccccn12)NCc1ccco1
3. COc1ccc(C(C)=O)cc1CSc1nc2cc(C(=O)O)ccc2c(=O)n1Cc1ccccc1

OUTPUT:
1: 11.3; 2: 22.3; 3: 12.7

Answer for every listed entry: what is its hERG current change (%, negative = inhibition) at 10uM? The entries follow.
1. CS(=O)(=O)c1ccc2nc(NC(=O)c3ccc(Cl)cc3)sc2c1
2. CCOC(=O)C1CCN(C2CCN(Cc3nc(-c4ccccc4)no3)CC2)CC1
3. CCN1CCCC1CNC(=O)CN(C)S(=O)(=O)c1ccc(Cl)cc1 (stereo not shown)
4. O=C(NCCNC(=O)c1ccccn1)c1ccccc1

OUTPUT:
6.42
-71.5
-21.6
11.7

Answer for every listed entry: what is its hERG current change (%, negative = inhibition) at 10uM? The entries follow.
1. CSCCC(NS(=O)(=O)/C=C/c1ccccc1)C(=O)NCCc1ccc(S(N)(=O)=O)cc1 (stereo not shown)
2. CCN1CCN(c2c(S(=O)(=O)c3ccc(C)c(C)c3)cnc3ccc(F)cc23)CC1

OUTPUT:
1. 7.59
2. -53.4

###

Target: human ether-à-go-go-related gene (hERG) potassium channel (human, UniProt Q12809);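 also: peak tail current of the secondary pulse compared with the same well before compound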
Sequence (Q12809 whole entry, looked up): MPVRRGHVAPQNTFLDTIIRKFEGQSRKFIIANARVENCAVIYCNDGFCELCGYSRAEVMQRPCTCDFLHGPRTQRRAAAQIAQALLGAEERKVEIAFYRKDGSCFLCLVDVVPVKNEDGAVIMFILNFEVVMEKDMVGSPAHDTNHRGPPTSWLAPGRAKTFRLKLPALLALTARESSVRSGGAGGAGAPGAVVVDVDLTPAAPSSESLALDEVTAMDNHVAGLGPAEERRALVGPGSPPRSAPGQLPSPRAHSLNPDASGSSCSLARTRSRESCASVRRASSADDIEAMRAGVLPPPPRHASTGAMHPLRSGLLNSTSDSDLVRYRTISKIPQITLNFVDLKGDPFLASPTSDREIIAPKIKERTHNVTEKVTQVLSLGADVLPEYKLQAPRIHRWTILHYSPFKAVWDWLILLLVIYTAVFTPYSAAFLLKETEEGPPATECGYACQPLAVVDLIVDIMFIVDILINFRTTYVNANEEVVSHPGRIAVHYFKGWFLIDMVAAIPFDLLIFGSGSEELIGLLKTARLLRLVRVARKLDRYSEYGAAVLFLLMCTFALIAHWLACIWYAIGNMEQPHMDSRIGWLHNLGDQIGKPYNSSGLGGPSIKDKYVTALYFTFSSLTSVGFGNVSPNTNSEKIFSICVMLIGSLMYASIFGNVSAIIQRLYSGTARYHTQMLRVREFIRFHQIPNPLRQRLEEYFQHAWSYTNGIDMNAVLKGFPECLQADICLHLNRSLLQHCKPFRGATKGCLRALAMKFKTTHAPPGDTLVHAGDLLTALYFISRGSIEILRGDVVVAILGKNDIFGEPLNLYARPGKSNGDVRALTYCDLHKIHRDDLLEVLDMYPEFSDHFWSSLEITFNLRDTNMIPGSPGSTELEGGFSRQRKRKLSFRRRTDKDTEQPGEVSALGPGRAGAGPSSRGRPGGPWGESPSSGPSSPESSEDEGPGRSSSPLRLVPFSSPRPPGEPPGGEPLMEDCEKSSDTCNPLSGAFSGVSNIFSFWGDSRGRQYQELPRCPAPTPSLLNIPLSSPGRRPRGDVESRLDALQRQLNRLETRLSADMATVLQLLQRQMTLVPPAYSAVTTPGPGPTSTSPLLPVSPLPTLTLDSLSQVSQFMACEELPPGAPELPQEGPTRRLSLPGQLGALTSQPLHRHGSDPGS
Test: primary screen, population patch clamp on CHO cells stably expressing hERG; higher = less effect of the substance
Description: Briefly, Chinese hamster ovary (CHO) cells stably expressing the hERG channel were dislodged from tissue culture flasks and dispensed into PPC plates. […] During the recording, background leak currents were estimated by a 100 ms step to -80 mV from an initial holding potential of -70 mV and subtracted from the subsequent current measurement. The campaign was conducted in two phases using slight differences in recording protocol. […]
Among all 310,000 compounds or so, about 14,000 (4.5%) showed an effect of 50% or more. Effects have a minus sign here. The sample as a whole holds a higher share of strong results than the screen did. Where a SMILES comes first, the peptide text is derived from it. The star is where a group is joined. Boc = CC(C)(C)OC(=O)*; OtBu = CC(C)(C)O*
Property: hERG current change (%, negative = inhibition) at 10uM
Please format your answer as a value with the unit trailing.

INSERT INTO results (compound, assay_value) VALUES
  ('CCOC(=O)c1nn(-c2ccc(Cl)cc2)c(C)cc1=O', '-0.00902%'),
  ('COc1ccc(N(CC(=O)Nc2cc(C)on2)S(=O)(=O)c2ccc(Cl)cc2)cc1', '9.89%'),
  ('O=C(CNC(=O)c1ccco1)N/N=C/c1ccc(O)c([N+](=O)[O-])c1', '29.1%');

Answer for every listed entry: what is its hERG current change (%, negative = inhibition) at 10uM? The entries follow.
1. NC(=O)C(c1ccccc1)c1ncc(C(F)(F)F)cc1Cl (stereo not drawn)
2. Cc1ccc(-n2cc(CNCCc3ncc(C)[nH]3)c(-c3ccc(F)cc3)n2)cc1
3. Fc1ccc(-c2nn(-c3ccccc3)cc2CNCc2ccccc2)cc1
4. CC(NC(=O)C(CC(=O)OC(C)(C)C)NC(=O)OC(C)(C)C)C(N)=O (stereo not drawn) (Boc-Asp(OtBu)-Ala-NH2; configuration not given here)
5. OCc1cn(-c2ccccc2)nc1-c1ccc2c(c1)OCCO2

OUTPUT:
1: 4.88%; 2: -47.4%; 3: 1.75%; 4: -5.99%; 5: 5.83%

INPUT: Answer with reported hERG current change (%, negative = inhibition) at 10uM of CCOC(=O)c1c(OCCO)nn(-c2ccccc2)c1N
OUTPUT: 14.1%

###

Please respond with reported hERG current change (%, negative = inhibition) at 10uM for every item in the list.
Target: human ether-à-go-go-related gene (hERG) potassium channel (human);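 also: peak tail current of the secondary pulse compared with the same well before compound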
Test: primary screen, population patch clamp on CHO cells stably expressing hERG; higher = less effect of the substance
Hit rate of the full screen: of about 310,000 compounds, about 14,000 (4.5%) showed an effect of 50% or more. The effect is printed as a negative number. The entries come from a sample that favours strong results as a whole.
Please format your answer as a value with the unit trailing.

// below: answered compounds
INSERT INTO assay_data (compound, assay_value) VALUES
  ('CCc1ccc2c(c1)C(c1ccc([N+](=O)[O-])cc1)=NNC(c1ccc(F)cc1)=N2', '-7.54%'),
  ('COc1cccc(C(=O)NC2CC3CCC(C2)N3Cc2ccccc2)c1 (centres unmarked)', '-28.7%'),
  ('COc1ccc(CN2C3CCC2CC(NC(=O)c2cc(OC)c(OC)c(OC)c2)C3)cc1 (centres unmarked)', '-31.6%');

Answer for every listed entry: what is its hERG current change (%, negative = inhibition) at 10uM? The entries follow.
1. Cc1ccnc(N2CCC(C(=O)NCc3ccc(F)cc3)CC2)n1
2. O=C(COC(=O)CCC1CCCC1)Nc1ccc(Cl)cn1

OUTPUT:
-12%
15.2%

###

Please respond with reported hERG current change (%, negative = inhibition) at 10uM for every item in the list.
Molecular target: human ether-à-go-go-related gene (hERG) potassium channel (human, UniProt Q12809);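 also: peak tail current of the secondary pulse compared with the same well before compound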
Test: primary screen, population patch clamp on CHO cells stably expressing hERG; higher = less effect of the substance
Among all 310,000 compounds or so, about 14,000 (4.5%) showed an effect of 50% or more. Effects have a minus sign here. This is one part of a sample in which strong results are shown more often than they occur.
One number for each entry, in %.

// below: answered compounds
INSERT INTO assay_data (compound, assay_value) VALUES
  ('COc1cc(C(C)=O)ccc1OCC(O)CNCC1(N2CCCCC2)CCCCC1.O=C(O)C(=O)O (stereo not drawn)', -42.1),
  ('COc1cc2c(cc1OC)CN(CC(=O)NC(=O)NC1CCCCC1)CC2', 3.28),
  ('COc1ccccc1COCC(O)CNCC1(N2CCCCC2)CCCCC1.O=C(O)C(=O)O (stereo not drawn)', -30.9);

Answer for every listed entry: what is its hERG current change (%, negative = inhibition) at 10uM? The entries follow.
1. Cc1c(Nc2nc3ccccc3nc2NS(=O)(=O)c2ccccc2)c(=O)n(-c2ccccc2)n1C
2. COc1cccc(CC2(CO)CCCN(Cc3ccccc3-c3ccco3)C2)c1 (stereo not drawn)
3. COc1cccc(CC2(CO)CCCN(Cc3cn[nH]c3-c3cc(C)ccc3C)C2)c1 (stereo not drawn)
4. Cc1c(NP(=O)(C(C)(C)C)C(C)(C)C)c(=O)n(-c2ccccc2)n1C
5. O=S(=O)(c1cccc(-c2nnc(SCc3ccc(Cl)cc3)o2)c1)N1CCCCC1
6. Cc1c(Nc2c3ccccc3nc3ccccc23)c(=O)n(-c2ccccc2)n1C

OUTPUT:
-67.1
-75.8
-59.2
26.4
10.7
-71

###

Molecular target: human ether-à-go-go-related gene (hERG) potassium channel (human, UniProt Q12809);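 also: peak tail current of the secondary pulse compared with the same well before compound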
Experiment: primary screen, population patch clamp on CHO cells stably expressing hERG; higher = less effect of the substance
Hit rate of the full screen: of about 310,000 compounds, about 14,000 (4.5%) showed an effect of 50% or more. Effects have a minus sign here. Shown is part of a subset that was picked to be rich in strong results.
Property: hERG current change (%, negative = inhibition) at 10uM (%)
Answers are plain numbers, in %.

// below: answered compounds
INSERT INTO results (compound, assay_value) VALUES
  ('Cc1ccoc1C(=O)NCCNc1ccc(Cl)cc1[N+](=O)[O-]', -30.5),
  ('COC(=O)CNC(=O)CNC(=O)Nc1ccccc1Cl', 9.2),
  ('FC(F)Oc1ccc(NC(=S)NCC2COc3ccccc3O2)cc1 (stereo not shown)', -5.83),
  ('O=C(NCC1CCCO1)C1CCN(c2ccc(S(=O)(=O)N3CCCC3)cc2)CC1 (stereo not shown)', -4.69),
  ('COc1ccc(NC(=S)NN(C)C(=S)Nc2ccc(OC)cc2)cc1', 26.1);

Answer for every listed entry: what is its hERG current change (%, negative = inhibition) at 10uM? The entries follow.
1. OC[C@H]1O[C@@H](n2cnc3c(NC4CCCC4)ncnc32)[C@H](O)[C@@H]1O
2. O=C(NCCNc1ccccc1[N+](=O)[O-])c1cc(F)c(F)cc1Cl
3. O=C(NCCCNc1ccc(C(F)(F)F)cc1[N+](=O)[O-])c1cc(F)c(F)cc1Cl
4. COc1ccccc1C(=O)NCC(=O)OCC(=O)c1cccc2ccccc12
5. Cc1ccc(C(CC(=O)NCCCN(C)C)c2ccc(OC(C)C)cc2)cc1 (stereo not shown)

OUTPUT:
1. 10.4
2. -52.1
3. -15.7
4. 4.06
5. -42.9

Answer for every listed entry: what is its hERG current change (%, negative = inhibition) at 10uM? The entries follow.
1. O=C(CNC(=O)c1ccco1)Nc1ccc(OC(F)F)cc1
2. Cc1cc(Nc2ccc([N+](=O)[O-])cc2)c2ccccc2n1
3. COc1ccc(-c2csc(NC(=O)CSc3nc(C)nc4sc(C(=O)O)c(C)c34)n2)cc1
4. Cc1cc(Nc2cccc([N+](=O)[O-])c2)c2cccc(C)c2n1.Cl
5. Cn1c(=O)c2cc(S(=O)(=O)NC(C(=O)Nc3cccc(F)c3)c3ccccc3)ccc2n(C)c1=O (stereo not shown)

OUTPUT:
1. 19.6
2. -20
3. 11.9
4. -77.3
5. -7.01

These data points were gathered from paper PMC4336329.
